Experiment: Solubility measurement of saturated solutions by HPLC at room temperature (0 h and 24 h)
Assay type: physicochemical
Settings: buffered water with excipient (saturated solution), pH 4, aqueous with cosolvent or surfactant or cyclodextrin, thermodynamic from solid, CBS 30 mM pH 4.0; PEG 400 50 mg/mL; 0 h; pH exp 4.1
Experimental: The vial contents are prepared starting with 2.5 mg of the compound of formula (I). The primary excipient is added followed by any further excipient and then the buffered water to a total volume of 500 μL. All components are mixed in a vortex mixer for ca. 5 minutes. […] The solubility in vial 1 is measured immediately as described below. To measure solubility 400 μl of the suspension are taken and placed in a centrifugation device above a 0.2 μm filter. […] The pH of the solution is measured. […]
endpointLabel: solubility at 0 h (mg/mL)

INSERT INTO results (testsmiles, endpointlabel, unit, result) VALUES
  ('COc1cc(N2CCNCC2)ccc1Nc1ncc2c(n1)-n1ccc(C(=O)Nc3c(C)cccc3C)c1CC2', 'solubility at 0 h', 'mg/mL', 0.34);

---

Experiment: Log P of free base
Assay type: physicochemical
Experimental: The compound of formula (I) as a free base compound has a quite strong lipophilic behavior (Log P 4.13). […] Taking into account these characteristics, and based on pH requirements for intravenous (IV) solutions which is generally set ≥4.0, solubility studies were carried out to identify solubilizers able to substantially increase the aqueous solubility of the compound of formula (I).
endpointLabel: logP

INSERT INTO assay_data (testsmiles, result) VALUES
  ('COc1cc(N2CCNCC2)ccc1Nc1ncc2c(n1)-n1ccc(C(=O)Nc3c(C)cccc3C)c1CC2', 4.13);

---

Test: Solubility measurement of saturated solutions by HPLC at room temperature (0 h and 24 h)
Type: physicochemical
Details: buffered water with excipients, pH 4, aqueous with cosolvent or surfactant or cyclodextrin, thermodynamic from solid, CBS 30 mM pH 4.0, NaCl 3 mg/mL; SBE-beta-CD 40 mg/mL + Glycerol 50 mg/mL; 0 h; pH exp 4.1
endpointLabel: solubility at 0 h (µg/mL)

INSERT INTO measurements (testsmiles, unit, result) VALUES
  ('COc1cc(N2CCNCC2)ccc1Nc1ncc2c(n1)-n1ccc(C(=O)Nc3c(C)cccc3C)c1CC2', 'µg/mL', 2330);

---

Test: Solubility measurement of saturated solutions by HPLC at room temperature (0 h and 24 h)
Format: physicochemical
Settings: buffered water with excipients, pH 4, aqueous with cosolvent or surfactant or cyclodextrin, thermodynamic from solid, CBS 30 mM pH 4.0, NaCl 6 mg/mL; SBE-beta-CD 40 mg/mL + Propylene glycol 30 mg/mL; 0 h; pH exp 4.1
endpointLabel: solubility at 0 h (µg/mL)

INSERT INTO measurements (compound, result) VALUES
  ('COc1cc(N2CCNCC2)ccc1Nc1ncc2c(n1)-n1ccc(C(=O)Nc3c(C)cccc3C)c1CC2 [compound of formula (I)]', 2150);

---

Assay: Solubility measurement of saturated solutions by HPLC at room temperature (0 h and 24 h)
Assay type: physicochemical
Details: buffered water with excipients, pH 4, aqueous with cosolvent or surfactant or cyclodextrin, thermodynamic from solid, GBS (gluconate) 30 mM pH 4.0, NaCl 3 mg/mL; SBE-beta-CD 40 mg/mL; 24 h; pH exp 4.5
endpointLabel: solubility at 24 h (mg/mL)

INSERT INTO assay_data (testsmiles, endpointlabel, result) VALUES
  ('COc1cc(N2CCNCC2)ccc1Nc1ncc2c(n1)-n1ccc(C(=O)Nc3c(C)cccc3C)c1CC2', 'solubility at 24 h', 3.94);

---

Assay: Solubility measurement of saturated solutions by HPLC at room temperature (0 h and 24 h)
Assay type: physicochemical
Settings: buffered water with excipient (saturated solution), pH 4, aqueous with cosolvent or surfactant or cyclodextrin, thermodynamic from solid, CBS 30 mM pH 4.0; Glycerol 50 mg/mL; 24 h; pH exp 4.3
endpointLabel: solubility at 24 h (µg/mL)

INSERT INTO results (testsmiles, unit, result) VALUES
  ('COc1cc(N2CCNCC2)ccc1Nc1ncc2c(n1)-n1ccc(C(=O)Nc3c(C)cccc3C)c1CC2', 'µg/mL', 120);

---

Experiment: Solubility measurement of saturated solutions by HPLC at room temperature (0 h and 24 h)
Assay type: physicochemical
Conditions: buffered water with excipients, pH 4, aqueous with cosolvent or surfactant or cyclodextrin, thermodynamic from solid, CBS 30 mM pH 4.0, NaCl 3 mg/mL; SBE-beta-CD 40 mg/mL + PEG 400 5 mg/mL; 24 h; pH exp 4.2
endpointLabel: solubility at 24 h

INSERT INTO results (testsmiles, result) VALUES
  ('COc1cc(N2CCNCC2)ccc1Nc1ncc2c(n1)-n1ccc(C(=O)Nc3c(C)cccc3C)c1CC2', '3750 µg/mL');

---

Assay: Solubility measurement of saturated solutions by HPLC at room temperature (0 h and 24 h)
Assay type: physicochemical
Conditions: buffered water with excipient (saturated solution), pH 4, aqueous with cosolvent or surfactant or cyclodextrin, thermodynamic from solid, CBS 30 mM pH 4.0; PEG 400 500 mg/mL; 0 h; pH exp 6.3
endpointLabel: solubility at 0 h (µg/mL)

INSERT INTO assay_data (testsmiles, endpointlabel, result) VALUES
  ('COc1cc(N2CCNCC2)ccc1Nc1ncc2c(n1)-n1ccc(C(=O)Nc3c(C)cccc3C)c1CC2', 'solubility at 0 h', 4100);

---

Assay: Solubility measurement of saturated solutions by HPLC at room temperature (0 h and 24 h)
Format: physicochemical
Details: buffered water with excipient (saturated solution), pH 4, aqueous with cosolvent or surfactant or cyclodextrin, thermodynamic from solid, CBS 30 mM pH 4.0; PEG 400 50 mg/mL; 24 h; pH exp 4.4
endpointLabel: solubility at 24 h

INSERT INTO results (testsmiles, endpointlabel, result) VALUES
  ('COc1cc(N2CCNCC2)ccc1Nc1ncc2c(n1)-n1ccc(C(=O)Nc3c(C)cccc3C)c1CC2', 'solubility at 24 h', '230 µg/mL');

---

Assay: Solubility measurement of saturated solutions by HPLC at room temperature (0 h and 24 h)
Type: physicochemical
Details: buffered water with excipients, pH 4, aqueous with cosolvent or surfactant or cyclodextrin, thermodynamic from solid, CBS 30 mM pH 4.0, NaCl 6 mg/mL; SBE-beta-CD 40 mg/mL + Kollidon 12 PF 2.5 mg/mL; 24 h; pH exp 4.3
endpointLabel: solubility at 24 h (µg/mL)

INSERT INTO results (testsmiles, result) VALUES
  ('COc1cc(N2CCNCC2)ccc1Nc1ncc2c(n1)-n1ccc(C(=O)Nc3c(C)cccc3C)c1CC2', 3690);

---

Test: Solubility measurement of saturated solutions by HPLC at room temperature (0 h and 24 h)
Format: physicochemical
Conditions: buffered water with excipient (saturated solution), pH 4, aqueous with cosolvent or surfactant or cyclodextrin, thermodynamic from solid, CBS 30 mM pH 4.0; PG 50 mg/mL; 24 h; pH exp 4.3
Method: The vial contents are prepared starting with 2.5 mg of the compound of formula (I). The primary excipient is added followed by any further excipient and then the buffered water to a total volume of 500 μL. All components are mixed in a vortex mixer for ca. 5 minutes. […] The solubility in vial 1 is measured immediately as described below. To measure solubility 400 μl of the suspension are taken and placed in a centrifugation device above a 0.2 μm filter. […] The pH of the solution is measured. […]
endpointLabel: solubility at 24 h (µg/mL)

INSERT INTO assay_data (molecule, endpointlabel, result) VALUES
  ('COc1cc(N2CCNCC2)ccc1Nc1ncc2c(n1)-n1ccc(C(=O)Nc3c(C)cccc3C)c1CC2 [compound of formula (I)]', 'solubility at 24 h', 110);

---

Assay: Solubility measurement of saturated solutions by HPLC at room temperature (0 h and 24 h)
Assay type: physicochemical
Settings: buffered water with excipients, pH 4, aqueous with cosolvent or surfactant or cyclodextrin, thermodynamic from solid, ABS (acetate) 30 mM pH 4.0, NaCl 3 mg/mL; SBE-beta-CD 40 mg/mL; 24 h; pH exp 4.6
Protocol: The vial contents are prepared starting with 2.5 mg of the compound of formula (I). The primary excipient is added followed by any further excipient and then the buffered water to a total volume of 500 μL. All components are mixed in a vortex mixer for ca. 5 minutes. […] The solubility in vial 1 is measured immediately as described below. To measure solubility 400 μl of the suspension are taken and placed in a centrifugation device above a 0.2 μm filter. […] The pH of the solution is measured. […]
endpointLabel: solubility at 24 h (µg/mL)

INSERT INTO results (compound, endpointlabel, unit, result) VALUES
  ('COc1cc(N2CCNCC2)ccc1Nc1ncc2c(n1)-n1ccc(C(=O)Nc3c(C)cccc3C)c1CC2 [compound of formula (I)]', 'solubility at 24 h', 'µg/mL', 3720);
